System: BEN
Experiment: relative viability (nuclei count vs DMSO), 5 days (fraction); higher = more cells survive
Settings: first compound 0.006325 µM
Quantity: relative viability

- CC(=O)O[C@@]12CO[C@@H]1C[C@H](O)[C@@]1(C)C(=O)[C@H](O)C3=C(C)[C@@H](OC(=O)[C@H](O)[C@@H](NC(=O)OC(C)(C)C)c4ccccc4)C[C@@](O)([C@@H](OC(=O)c4ccccc4)[C@H]21)C3(C)C [Docetaxel] + CC1(C)CCC(c2ccc(Cl)cc2)=C(CN2CCN(c3ccc(C(=O)NS(=O)(=O)c4ccc(N[C@H](CCN5CCOCC5)CSc5ccccc5)c(S(=O)(=O)C(F)(F)F)c4)cc3)CC2)C1 [Navitoclax] (partner 0.5 µM): 0.0423

====

System: NCI-H520
Experiment: relative viability (nuclei count vs DMSO), 5 days (fraction); higher = more cells survive
Details: first compound 0.253 µM
Assign labels as follows, please: yes for relative viability below 0.3; no for relative viability equal to or exceeding 0.3.

- O=c1[nH]c2ccccc2n1C1CCN(CCCC(c2ccc(F)cc2)c2ccc(F)cc2)CC1 [Pimozide] + C[C@]1(O)C[C@@H](c2nc(-c3ccc4ccc(-c5ccccc5)nc4c3)c3c(N)nccn32)C1 [Linsitinib] (partner 1 µM): no
- O=c1[nH]c2ccccc2n1C1CCN(CCCC(c2ccc(F)cc2)c2ccc(F)cc2)CC1 [Pimozide] + CC(=O)c1c(C)c2cnc(Nc3ccc(N4CCNCC4)cn3)nc2n(C2CCCC2)c1=O [Palbociclib] (partner 0.5 µM): yes
- O=c1[nH]c2ccccc2n1C1CCN(CCCC(c2ccc(F)cc2)c2ccc(F)cc2)CC1 [Pimozide] + CC(=O)Nc1cccc(-n2c(=O)n(C3CC3)c(=O)c3c(Nc4ccc(I)cc4F)n(C)c(=O)c(C)c32)c1 [Trametinib] (partner 0.02 µM): no
- O=c1[nH]c2ccccc2n1C1CCN(CCCC(c2ccc(F)cc2)c2ccc(F)cc2)CC1 [Pimozide] + CS(=O)(=O)N1CCN(Cc2cc3nc(-c4cccc5[nH]ncc45)nc(N4CCOCC4)c3s2)CC1 [Pictilisib] (partner 1 µM): no

====

Tested on: NCI-H2347
Assay: relative viability (nuclei count vs DMSO), 5 days (fraction); higher = more cells survive
Details: first compound 0.002 µM
Listed here: items and their measured relative viability.
Quantity: relative viability

* CC(=O)O[C@@]12CO[C@@H]1C[C@H](O)[C@@]1(C)C(=O)[C@H](O)C3=C(C)[C@@H](OC(=O)[C@H](O)[C@@H](NC(=O)OC(C)(C)C)c4ccccc4)C[C@@](O)([C@@H](OC(=O)c4ccccc4)[C@H]21)C3(C)C [Docetaxel] + O=C(c1cc(Cc2n[nH]c(=O)c3ccccc23)ccc1F)N1CCN(C(=O)C2CC2)CC1 [Olaparib] (partner 8 µM) | 0.557
* CC(=O)O[C@@]12CO[C@@H]1C[C@H](O)[C@@]1(C)C(=O)[C@H](O)C3=C(C)[C@@H](OC(=O)[C@H](O)[C@@H](NC(=O)OC(C)(C)C)c4ccccc4)C[C@@](O)([C@@H](OC(=O)c4ccccc4)[C@H]21)C3(C)C [Docetaxel] + Cc1cc(Nc2cc(N3CCN(C)CC3)nc(Sc3ccc(NC(=O)C4CC4)cc3)n2)n[nH]1 [Tozasertib] (partner 0.1 µM) | 0.441
* CC(=O)O[C@@]12CO[C@@H]1C[C@H](O)[C@@]1(C)C(=O)[C@H](O)C3=C(C)[C@@H](OC(=O)[C@H](O)[C@@H](NC(=O)OC(C)(C)C)c4ccccc4)C[C@@](O)([C@@H](OC(=O)c4ccccc4)[C@H]21)C3(C)C [Docetaxel] + CS(=O)(=O)N1CCN(Cc2cc3nc(-c4cccc5[nH]ncc45)nc(N4CCOCC4)c3s2)CC1 [Pictilisib] (partner 1 µM) | 0.696
* CC(=O)O[C@@]12CO[C@@H]1C[C@H](O)[C@@]1(C)C(=O)[C@H](O)C3=C(C)[C@@H](OC(=O)[C@H](O)[C@@H](NC(=O)OC(C)(C)C)c4ccccc4)C[C@@](O)([C@@H](OC(=O)c4ccccc4)[C@H]21)C3(C)C [Docetaxel] + CC(C)C[C@H](NC(=O)[C@H](Cc1ccccc1)NC(=O)c1cnccn1)B(O)O [Bortezomib] (partner 0.002 µM) | 0.326
* CC(=O)O[C@@]12CO[C@@H]1C[C@H](O)[C@@]1(C)C(=O)[C@H](O)C3=C(C)[C@@H](OC(=O)[C@H](O)[C@@H](NC(=O)OC(C)(C)C)c4ccccc4)C[C@@](O)([C@@H](OC(=O)c4ccccc4)[C@H]21)C3(C)C [Docetaxel] + C[C@@H](Oc1cc(-c2cnn(C3CCNCC3)c2)cnc1N)c1c(Cl)ccc(F)c1Cl [Crizotinib] (partner 1 µM) | 0.695

====

Test system: EKVX
Experiment: relative viability (nuclei count vs DMSO), 5 days (fraction); higher = more cells survive
Settings: first compound 0.005 µM
Quantity: relative viability

* COc1cc2nccc(Oc3ccc(NC(=O)Nc4cc(C)on4)c(Cl)c3)c2cc1OC [Tivozanib] + CC(=O)c1c(C)c2cnc(Nc3ccc(N4CCNCC4)cn3)nc2n(C2CCCC2)c1=O [Palbociclib] (partner 0.5 µM) | 0.37
* COc1cc2nccc(Oc3ccc(NC(=O)Nc4cc(C)on4)c(Cl)c3)c2cc1OC [Tivozanib] + Nc1ncn([C@H]2C[C@H](O)[C@@H](CO)O2)c(=O)n1 [Decitabine] (partner 2 µM) | 0.308
* Nc1ccn([C@@H]2O[C@H](CO)[C@@H](O)[C@@H]2O)c(=O)n1 [Cytarabine] + CC(=O)Nc1cccc(-n2c(=O)n(C3CC3)c(=O)c3c(Nc4ccc(I)cc4F)n(C)c(=O)c(C)c32)c1 [Trametinib] (partner 0.02 µM) | 0.584
* Nc1ccn([C@@H]2O[C@H](CO)[C@@H](O)[C@@H]2O)c(=O)n1 [Cytarabine] + Cc1nc(NC(=O)N2CCC[C@H]2C(N)=O)sc1-c1ccnc(C(C)(C)C(F)(F)F)c1 [Alpelisib] (partner 2 µM) | 0.867
* COc1cc2nccc(Oc3ccc(NC(=O)Nc4cc(C)on4)c(Cl)c3)c2cc1OC [Tivozanib] + Nc1nc2[nH]cc(CCc3ccc(C(=O)N[C@@H](CCC(=O)O)C(=O)O)cc3)c2c(=O)[nH]1 [Pemetrexed] (partner 0.2 µM) | 0.377
* COc1cc2nccc(Oc3ccc(NC(=O)Nc4cc(C)on4)c(Cl)c3)c2cc1OC [Tivozanib] + CS(=O)(=O)N1CCN(Cc2cc3nc(-c4cccc5[nH]ncc45)nc(N4CCOCC4)c3s2)CC1 [Pictilisib] (partner 1 µM) | 0.392

====

System: NCI-H1975
Test: relative viability (nuclei count vs DMSO), 5 days (fraction); higher = more cells survive
Details: first compound 0.08 µM
Assign labels as follows, please: True for relative viability below 0.8; False for relative viability equal to or exceeding 0.8.

- O=c1[nH]c2ccccc2n1C1CCN(CCCC(c2ccc(F)cc2)c2ccc(F)cc2)CC1 [Pimozide] + C[C@@H](Oc1cc(-c2cnn(C3CCNCC3)c2)cnc1N)c1c(Cl)ccc(F)c1Cl [Crizotinib] (partner 1 µM): False
- O=c1[nH]c2ccccc2n1C1CCN(CCCC(c2ccc(F)cc2)c2ccc(F)cc2)CC1 [Pimozide] + CC1(C)CCC(c2ccc(Cl)cc2)=C(CN2CCN(c3ccc(C(=O)NS(=O)(=O)c4ccc(N[C@H](CCN5CCOCC5)CSc5ccccc5)c(S(=O)(=O)C(F)(F)F)c4)cc3)CC2)C1 [Navitoclax] (partner 0.5 µM): False
- Cc1cnc(-c2cnc(NCCNc3ccc(C#N)cn3)nc2-c2ccc(Cl)cc2Cl)[nH]1 + O=C(c1cc(Cc2n[nH]c(=O)c3ccccc23)ccc1F)N1CCN(C(=O)C2CC2)CC1 [Olaparib] (partner 8 µM): True
- Cc1cnc(-c2cnc(NCCNc3ccc(C#N)cn3)nc2-c2ccc(Cl)cc2Cl)[nH]1 + N=C(N)NC(=N)NCCc1ccccc1 [Phenformin] (partner 250 µM): True
- Cc1cnc(-c2cnc(NCCNc3ccc(C#N)cn3)nc2-c2ccc(Cl)cc2Cl)[nH]1 + Cc1nc(NC(=O)N2CCC[C@H]2C(N)=O)sc1-c1ccnc(C(C)(C)C(F)(F)F)c1 [Alpelisib] (partner 2 µM): True
- O=c1[nH]c2ccccc2n1C1CCN(CCCC(c2ccc(F)cc2)c2ccc(F)cc2)CC1 [Pimozide] + O=C(c1cc(Cc2n[nH]c(=O)c3ccccc23)ccc1F)N1CCN(C(=O)C2CC2)CC1 [Olaparib] (partner 8 µM): False
- Cc1cnc(-c2cnc(NCCNc3ccc(C#N)cn3)nc2-c2ccc(Cl)cc2Cl)[nH]1 + COc1cc2c(Oc3ccc(NC(=O)C4(C(=O)Nc5ccc(F)cc5)CC4)cc3F)ccnc2cc1OCCCN1CCOCC1 [Foretinib] (partner 0.25 µM): False
- O=c1[nH]c2ccccc2n1C1CCN(CCCC(c2ccc(F)cc2)c2ccc(F)cc2)CC1 [Pimozide] + Cc1cc(Nc2cc(N3CCN(C)CC3)nc(Sc3ccc(NC(=O)C4CC4)cc3)n2)n[nH]1 [Tozasertib] (partner 0.1 µM): True
- Cc1cnc(-c2cnc(NCCNc3ccc(C#N)cn3)nc2-c2ccc(Cl)cc2Cl)[nH]1 + CCNC(=O)c1noc(-c2cc(C(C)C)c(O)cc2O)c1-c1ccc(CN2CCOCC2)cc1 [Luminespib] (partner 0.01 µM): True
- O=c1[nH]c2ccccc2n1C1CCN(CCCC(c2ccc(F)cc2)c2ccc(F)cc2)CC1 [Pimozide] + CS(=O)(=O)N1CCN(Cc2cc3nc(-c4cccc5[nH]ncc45)nc(N4CCOCC4)c3s2)CC1 [Pictilisib] (partner 1 µM): True
